experimentalTarget: DCAF15 (Homo sapiens, UniProt Q66K64)
testDescription: HTRF competition assay, binary interaction between compounds and DCAF15
particulars: competition with Alexa Fluor 647 tracer, His-tagged DCAF15 complex
pIC50: −log10 of the molar value.
Kindly state pIC50 for each of the entries shown.

Solved cases below.
                          structureassmiles       reading
0  O=C1CC[C@H](NC(=O)c2ccc(S(=O)(=O)Nc3ccc(Cl)c4c(Cl)c[nH]c34)c(F)c2)CN1        > 6.00
1  O=C(NCCCOCc1ccccc1)c1ccc(S(=O)(=O)Nc2ccc(Cl)c3c(Cl)c[nH]c23)c(F)c1        < 4.00
2  CCc1nc(CN(C)C(=O)c2cccc(S(=O)(=O)Nc3ccc(Cl)c4c(Cl)c[nH]c34)c2F)no1  5.00 to 6.00

Please report pIC50 for every entry that follows.
1. CN1CC(CCNC(=O)c2ccc(S(=O)(=O)Nc3ccc(Cl)c4c(Cl)c[nH]c34)c(F)c2)C1
2. Cc1nc(-c2ccc(COc3cccc(S(=O)(=O)Nc4ccc(Cl)c5c(Cl)c[nH]c45)c3)cc2)no1
3. O=C(COc1ccc(S(=O)(=O)Nc2ccc(Cl)c3c(Cl)c[nH]c23)cc1)NC1CC1
4. Cc1cnc(CNC(=O)c2cccc(S(=O)(=O)Nc3ccc(Cl)c4c(Cl)c[nH]c34)c2F)cn1
5. O=S(=O)(Nc1ccc(Cl)c2c(Cl)c[nH]c12)c1cccc(O[C@@H]2C[C@@H]3C[C@@H]3C2)c1
6. O=S(=O)(Nc1ccc(Cl)c2c(Cl)c[nH]c12)c1cccc(OCCCN2CC3(COC3)C2)c1
7. O=C(N[C@H]1CCCCNC1=O)c1ccc(S(=O)(=O)Nc2ccc(Cl)c3c(Cl)c[nH]c23)c(F)c1

5.00 to 6.00
< 4.00
< 4.00
5.00 to 6.00
< 4.00
< 4.00
> 6.00

Please report pIC50 for every entry that follows.
1. O=S(=O)(Nc1ccc(Cl)c2c(Cl)c[nH]c12)c1ccc(OC(F)F)c(F)c1
2. CC(C)C(=O)Nc1cccc(CNC(=O)c2cccc(S(=O)(=O)Nc3ccc(Cl)c4c(Cl)c[nH]c34)c2F)c1
3. Cc1cnc(CNC(=O)c2ccc(S(=O)(=O)Nc3ccc(Cl)c4c(Cl)c[nH]c34)c(F)c2)cn1
4. N[C@H]1CC[C@H](Oc2ccc(S(=O)(=O)Nc3ccc(Cl)c4c(Cl)c[nH]c34)cc2)CC1
5. O=S(=O)(Nc1ccc(Cl)c2c(Cl)c[nH]c12)c1cccc(OCCCN2CCCc3ccccc32)c1
6. O=C(NCCCOCc1ccccc1)c1cccc(S(=O)(=O)Nc2ccc(Cl)c3c(Cl)c[nH]c23)c1F
7. NCCc1ccc(COc2cccc(S(=O)(=O)Nc3ccc(Cl)c4c(Cl)c[nH]c34)c2)cc1

5.00 to 6.00
5.00 to 6.00
> 6.00
5.00 to 6.00
< 4.00
5.00 to 6.00
4.00 to 5.00

* * *

Kindly state IC50 for each of the entries shown.
experimentalTarget: DCAF15 (Homo sapiens, UniProt Q66K64)
testDescription: HTRF competition assay, binary interaction between compounds and DCAF15
particulars: competition with Alexa Fluor 647 tracer, His-tagged DCAF15 complex

Solved cases below.
                          structureassmiles                     experimentaltarget  measurename     reading
0  O=S(=O)(Nc1ccc(Cl)c2c(Cl)c[nH]c12)c1ccc(OCCCCc2ccccn2)cc1  DCAF15 (Homo sapiens, UniProt Q66K64)         IC50  1 to 10 µM
1  O=C(NC[C@H]1Cc2ccccc21)c1cccc(S(=O)(=O)Nc2ccc(Cl)c3c(Cl)c[nH]c23)c1F  DCAF15 (Homo sapiens, UniProt Q66K64)         IC50  1 to 10 µM

Please report IC50 for every entry that follows.
1. CS(=O)(=O)c1ccc(CCOc2cccc(S(=O)(=O)Nc3ccc(Cl)c4c(Cl)c[nH]c34)c2)cc1
2. CC[C@H](NC(=O)c1ccc(S(=O)(=O)Nc2ccc(Cl)c3c(Cl)c[nH]c23)c(F)c1)c1ccc2c(c1)OCCO2

1. > 100 µM
2. 1 to 10 µM

* * *

Kindly state Dmax for each of the entries shown.
experimentalTarget: RBM39 (Homo sapiens, UniProt Q14498+Q66K64)
Construct: endogenous in cells; host or cells: HCT116
Sequence (Q66K64 whole entry): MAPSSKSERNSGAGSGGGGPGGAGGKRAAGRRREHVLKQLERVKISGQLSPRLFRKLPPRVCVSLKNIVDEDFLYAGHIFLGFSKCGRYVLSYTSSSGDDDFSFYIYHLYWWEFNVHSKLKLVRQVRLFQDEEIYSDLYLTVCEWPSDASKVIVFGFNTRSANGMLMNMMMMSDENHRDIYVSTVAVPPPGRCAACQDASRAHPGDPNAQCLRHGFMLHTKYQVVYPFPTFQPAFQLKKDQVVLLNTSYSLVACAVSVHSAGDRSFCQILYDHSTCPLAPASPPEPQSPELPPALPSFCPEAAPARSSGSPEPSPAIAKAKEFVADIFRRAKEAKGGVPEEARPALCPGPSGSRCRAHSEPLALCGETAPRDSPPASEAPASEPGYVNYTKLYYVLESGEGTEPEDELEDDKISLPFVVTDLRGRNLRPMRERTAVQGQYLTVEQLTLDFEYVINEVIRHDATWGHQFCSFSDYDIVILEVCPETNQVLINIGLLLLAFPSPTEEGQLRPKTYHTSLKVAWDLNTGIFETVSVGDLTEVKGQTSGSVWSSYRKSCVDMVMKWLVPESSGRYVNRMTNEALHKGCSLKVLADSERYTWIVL
Sequence (Q14498 2-530): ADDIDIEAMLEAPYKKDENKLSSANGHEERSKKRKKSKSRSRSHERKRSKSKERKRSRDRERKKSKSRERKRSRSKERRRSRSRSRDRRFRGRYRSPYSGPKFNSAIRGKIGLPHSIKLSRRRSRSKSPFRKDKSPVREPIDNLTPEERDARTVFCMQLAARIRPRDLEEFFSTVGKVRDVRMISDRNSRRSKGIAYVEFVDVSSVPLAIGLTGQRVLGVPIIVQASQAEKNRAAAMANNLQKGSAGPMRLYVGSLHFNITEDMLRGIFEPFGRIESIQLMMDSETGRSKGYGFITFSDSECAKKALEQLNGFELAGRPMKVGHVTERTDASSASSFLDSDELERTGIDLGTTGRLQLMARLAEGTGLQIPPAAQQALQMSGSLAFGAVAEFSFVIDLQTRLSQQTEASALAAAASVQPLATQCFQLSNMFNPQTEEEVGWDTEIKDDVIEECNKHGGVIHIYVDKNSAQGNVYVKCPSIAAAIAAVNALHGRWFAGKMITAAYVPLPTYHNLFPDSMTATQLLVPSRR
Sequence (Q16531 whole entry, further chain): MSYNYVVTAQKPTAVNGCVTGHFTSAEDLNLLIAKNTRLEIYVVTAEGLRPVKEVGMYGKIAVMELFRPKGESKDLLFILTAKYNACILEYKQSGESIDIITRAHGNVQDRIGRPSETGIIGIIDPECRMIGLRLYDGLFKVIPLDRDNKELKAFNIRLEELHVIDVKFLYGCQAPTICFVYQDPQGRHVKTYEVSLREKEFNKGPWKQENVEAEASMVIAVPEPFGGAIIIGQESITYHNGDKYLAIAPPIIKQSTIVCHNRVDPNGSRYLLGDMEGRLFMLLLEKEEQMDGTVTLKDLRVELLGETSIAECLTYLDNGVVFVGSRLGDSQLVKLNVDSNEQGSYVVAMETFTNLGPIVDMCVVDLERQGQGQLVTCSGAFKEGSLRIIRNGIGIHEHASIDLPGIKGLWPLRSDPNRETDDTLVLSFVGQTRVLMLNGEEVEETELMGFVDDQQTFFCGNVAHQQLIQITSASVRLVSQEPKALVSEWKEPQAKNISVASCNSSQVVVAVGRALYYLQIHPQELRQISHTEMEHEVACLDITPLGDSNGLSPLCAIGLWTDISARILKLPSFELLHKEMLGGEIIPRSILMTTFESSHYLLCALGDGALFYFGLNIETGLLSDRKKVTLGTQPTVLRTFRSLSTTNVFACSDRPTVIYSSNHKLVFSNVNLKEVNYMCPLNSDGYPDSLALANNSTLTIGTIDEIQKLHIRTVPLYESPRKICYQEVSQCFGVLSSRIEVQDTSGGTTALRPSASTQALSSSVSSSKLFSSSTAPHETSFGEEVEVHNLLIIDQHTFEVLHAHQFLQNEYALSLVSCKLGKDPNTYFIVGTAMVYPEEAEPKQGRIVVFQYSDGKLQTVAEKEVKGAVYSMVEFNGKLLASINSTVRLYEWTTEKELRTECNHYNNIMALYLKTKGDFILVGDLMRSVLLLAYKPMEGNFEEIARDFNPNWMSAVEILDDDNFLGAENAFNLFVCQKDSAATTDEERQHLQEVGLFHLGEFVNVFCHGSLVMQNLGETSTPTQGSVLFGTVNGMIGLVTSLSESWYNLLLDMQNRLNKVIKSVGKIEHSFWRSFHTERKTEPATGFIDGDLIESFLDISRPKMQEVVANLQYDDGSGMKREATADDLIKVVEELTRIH
testDescription: Western blot assay for degradation of RBM39 in HCT116 cells
Format: cell-based
particulars: HCT-116, numeric values
Answers are plain numbers, in %.

Solved cases below.
>>> print(df.to_string())
                          structureassmiles  reading
0  O=C(c1cccc(S(=O)(=O)Nc2ccc(Cl)c3c(Cl)c[nH]c23)c1)N1CCOCC1      100
1  O=C(NC1CC1)c1ccc(S(=O)(=O)Nc2ccc(Cl)c3c(Cl)c[nH]c23)cc1     94.8
2  O=C(COc1ccc(S(=O)(=O)Nc2ccc(Cl)c3c(Cl)c[nH]c23)cc1)NC1CC1     97.6

Now turn to the next compound.
Write down the reported Dmax of "CCS(=O)(=O)CCOc1ccc(S(=O)(=O)Nc2ccc(Cl)c3c(Cl)c[nH]c23)cc1" , test system: RBM39 (Homo sapiens, UniProt Q14498+Q66K64).
100

* * *

experimentalTarget: DCAF15 (Homo sapiens, UniProt Q66K64)
testDescription: HTRF competition assay, binary interaction between compounds and DCAF15
particulars: competition with Alexa Fluor 647 tracer, His-tagged DCAF15 complex
Procedure: Example 7: Measurement of Binary Interaction Between Compounds And DCAF15 Using Homogeneous Time Resolved Fluorescence (HTRF) DCAF15 interactions with test compounds were monitored using HTRF competition assays (Cisbio, Bedford, MA). […] The final mixture was incubated for an hour at room temperature and spun down briefly before data collection at 615 nm and 666 nm using En Vision 2104 Multilabel Plate Reader (Perkin Elmer, Bedford, MA). […]
pIC50: −log10 of the molar value.
measureName: pIC50

Solved cases below.
                          structureassmiles       reading
0  CC(C)CCOc1ccc(S(=O)(=O)Nc2ccc(Cl)c3c(Cl)c[nH]c23)cc1  5.00 to 6.00
1  O=S(=O)(Nc1ccc(Cl)c2c(Cl)c[nH]c12)c1cccc(OCc2ccc3c(c2)CNC3)c1        < 4.00

Please report pIC50 for every entry that follows.
1. O=C(NCCCC(=O)N1CCCC1)c1cccc(S(=O)(=O)Nc2ccc(Cl)c3c(Cl)c[nH]c23)c1F
2. CC(C)(C)OC(=O)NC1(CNC(=O)c2cccc(S(=O)(=O)Nc3ccc(Cl)c4c(Cl)c[nH]c34)c2F)CC1
3. CN(C)C(=O)c1ccc(CCNC(=O)c2cccc(S(=O)(=O)Nc3ccc(Cl)c4c(Cl)c[nH]c34)c2F)cc1

1. > 6.00
2. 5.00 to 6.00
3. 5.00 to 6.00

* * *

Kindly state pEC50 for each of the entries shown.
experimentalTarget: DCAF15/RBM39 (Homo sapiens, UniProt Q14498+Q66K64)
testDescription: AlphaLISA compound-induced DCAF15-RBM39 ternary complex formation
particulars: His-tagged DCAF15 complex and biotin-carrying RBM39
pEC50: −log10 of the molar value.

Solved cases below.
In [3]: df
Out[3]:
                          structureassmiles       reading
0  O=S(=O)(Nc1ccc(Cl)c2c(Cl)c[nH]c12)c1ccc(O[C@@H]2C[C@@H]3C[C@@H]3C2)cc1  5.00 to 6.00
1  O=C(c1ccc(S(=O)(=O)Nc2ccc(Cl)c3c(Cl)c[nH]c23)c(F)c1)N1CCC(c2ccnc(C(F)F)c2)CC1        < 4.00

Please report pEC50 for every entry that follows.
1. Cn1ncnc1COc1ccc(S(=O)(=O)Nc2ccc(Cl)c3c(Cl)c[nH]c23)cc1
2. CCc1nc(CN(C)C(=O)c2cccc(S(=O)(=O)Nc3ccc(Cl)c4c(Cl)c[nH]c34)c2F)no1
3. CCOc1cc(N2CCC[C@H](COc3ccc(S(=O)(=O)Nc4ccc(Cl)c5c(Cl)c[nH]c45)cc3)C2)ncn1
4. CS(=O)(=O)c1ccc(CCOc2cccc(S(=O)(=O)Nc3ccc(Cl)c4c(Cl)c[nH]c34)c2)cc1
5. CNC(=O)c1ccc(F)c(S(=O)(=O)Nc2ccc(Cl)c3c(Cl)c[nH]c23)c1

1: > 6.00; 2: > 6.00; 3: 5.00 to 6.00; 4: 5.00 to 6.00; 5: 5.00 to 6.00

Please report pEC50 for every entry that follows.
1. Cn1cc(CCOc2cccc(S(=O)(=O)Nc3ccc(Cl)c4c(Cl)c[nH]c34)c2)c2ccccc21
2. O=S(=O)(Nc1ccc(Cl)c2c(Cl)c[nH]c12)c1cccc(OC2CCC3(CCNCC3)CC2)c1
3. CN1CC2(CC(Oc3ccc(S(=O)(=O)Nc4ccc(Cl)c5c(Cl)c[nH]c45)cc3)C2)C1
4. O=S(=O)(Nc1ccc(Cl)c2c(Cl)c[nH]c12)c1ccc(O[C@H]2CC[C@H](N3CCOCC3)CC2)cc1
5. O=S(=O)(Nc1ccc(Cl)c2c(Cl)c[nH]c12)c1cccc(O[C@H]2CC[C@H](OCc3ccccc3)CC2)c1

["4.00 to 5.00", "5.00 to 6.00", "> 6.00", "> 6.00", "< 4.00"]
